These entries and their values trace back to PubChem BioAssay AID1159580.

Test Details: chemical genetic growth profiling, strain panel (AID 1159580);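 further: tested at 20 µM; growth read once vehicle control cultures reached saturation at 30 °C; 1 = growth at the plate median or of vehicle wells; lower values mean less growth of the strain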
Study Conditions: S. cerevisiae deletion strains, growth OD, locus YDR334W, strain swr1, active compounds read low
About 2,000 (36%) of roughly 5,500 compounds were called active. Not shown: some 18% with an inconclusive outcome. This is one part of the list.
Endpoint: normalized growth
Number only, no unit.

So what does the record say about normalized growth for O=C1OC(=O)C2C3CCC(O3)C12 (stereo not drawn) ?
0.992

Request the reported normalized growth associated with CC(C)=CCC/C(C)=C/COc1ccc2ccc(=O)oc2c1
0.992

Entry under review: CN(C)c1nc(N(C)C)nc(N(C)C)n1 . Reported normalized growth?
0.942

# normalized growth lookup, item O=C(O)CCCN1C(=O)c2cccc3cccc(c23)C1=O
1.02

Fill in the blank: the reported normalized growth of CC(C)=CCOc1c2occc2cc2ccc(=O)oc12 is ____.
0.892

Could you tell me which normalized growth is on file for O=c1ccc2cc(O[C@@H]3O[C@H](CO)[C@@H](O)[C@H](O)[C@H]3O)c(O)cc2o1 ?
0.982

Could you share which normalized growth value was measured for O=C(O)c1cc2cc(Cl)ccc2[nH]1 ?
0.986

Could you tell me which normalized growth is on file for COc1cc2ccc(=O)oc2c(OC)c1OC ?
0.98

# query: normalized growth of entry COc1ccc2ccc(=O)oc2c1CC=C(C)C
0.936

For the compound O=C(O)c1cccc(O)c1O , what normalized growth is on record?
1.02

May I ask what normalized growth has been recorded for COc1cc2ccc(=O)oc2cc1O ?
0.959

Given CN1Cc2c(N)cccc2C(c2ccccc2)C1 (stereo not drawn) , state its recorded normalized growth.
1.01

Dear colleague, I am looking for the recorded normalized growth of the following compound: COc1cc(O)c(C(=O)O)c(O)c1
0.999
